Recorded half-life values for a group of compounds are listed next.
method description: Pharmacokinetics of methoxyflavones after single oral administration of KP ethanolic extract in roosters
Type: in vivo, Thai native roosters (Pradu Hang Dum breed)
protocol conditions: male, Thai native Pradu Hang Dum, whole blood, single oral KP extract 150 mg/kg, blood, n = 9
Dear colleague, please return just the value in h, with no unit written.

> print(dat)
                                   compound  reading
1  COc1cc(OC)c2c(=O)cc(-c3ccccc3)oc2c1 [DMF, 5,7-dimethoxyflavone]     2.57
2  COc1cc(OC)c2c(=O)c(OC)c(-c3ccc(OC)c(OC)c3)oc2c1 [PMF, 3,5,7,3′,4′-pentamethoxyflavone]     2.24

Next:
### Prompt // returns reported half-life for input COc1ccc(-c2cc(=O)c3c(OC)cc(OC)cc3o2)cc1 [TMF, 5,7,4′-trimethoxyflavone]
### Response 2.01

###

method description: Pharmacokinetics of methoxyflavones after single oral administration of KP ethanolic extract in roosters
Type: in vivo, Thai native roosters (Pradu Hang Dum breed)
protocol conditions: male, Thai native Pradu Hang Dum, whole blood, single oral KP extract 100 mg/kg, blood, n = 9
Recorded Cmax values for a group of compounds are listed next.

Known Cmax results, listed for orientation:
> print(dat)
                                smiles.text    reading
1   COc1ccc(-c2cc(=O)c3c(OC)cc(OC)cc3o2)cc1  380 ng/mL
2  COc1cc(OC)c2c(=O)c(OC)c(-c3ccc(OC)c(OC)c3)oc2c1  640 ng/mL

Next:
### Prompt // returns reported Cmax for input COc1cc(OC)c2c(=O)cc(-c3ccccc3)oc2c1
### Response 340 ng/mL

###

Recorded Cmax values for a group of molecules are listed next.
method description: Pharmacokinetics of methoxyflavones after single oral administration of KP ethanolic extract in roosters
Type: in vivo, Thai native roosters (Pradu Hang Dum breed)
protocol conditions: male, Thai native Pradu Hang Dum, whole blood, single oral KP extract 200 mg/kg, blood, n = 9
Dear colleague, please return just the value in ng/mL, with no unit written.

> print(dat)
                                smiles.text  result.type  reading
1  COc1cc(OC)c2c(=O)c(OC)c(-c3ccc(OC)c(OC)c3)oc2c1         Cmax      830
2   COc1ccc(-c2cc(=O)c3c(OC)cc(OC)cc3o2)cc1         Cmax      590

Next:
### Prompt // returns reported Cmax for input COc1cc(OC)c2c(=O)cc(-c3ccccc3)oc2c1
### Response 540

###

Recorded k el values for a group of compounds are listed next.
method description: Pharmacokinetics of methoxyflavones after single oral administration of KP ethanolic extract in roosters
Assay type: in vivo, Thai native roosters (Pradu Hang Dum breed)
protocol conditions: male, Thai native Pradu Hang Dum, whole blood, single oral KP extract 200 mg/kg, blood, n = 9, read-out: Ke (converted)
Your answer should be a number followed by the unit of measure.

Known k el results, listed for orientation:
> print(dat)
                                smiles.text       reading
1  COc1cc(OC)c2c(=O)c(OC)c(-c3ccc(OC)c(OC)c3)oc2c1  0.000114 s⁻¹
2       COc1cc(OC)c2c(=O)cc(-c3ccccc3)oc2c1  9.17e-05 s⁻¹

### Prompt // returns reported k el for input COc1ccc(-c2cc(=O)c3c(OC)cc(OC)cc3o2)cc1
### Response 0.000103 s⁻¹

Values were extracted from paper PMC12011786.
